- Tested on: MDA-MB-435
Assign a class; possible classes are 1 (yes) for active, 0 (no) for inactive

Worked examples follow.
>  <molecule>
COc1ccc(C2=NN(C=O)C(c3ccc(OS(=O)(=O)c4ccc(C)cc4)c(OC)c3)C2)cc1 (centres undefined)

>  <classification>
0 (no)

$$$$
>  <molecule>
O=C1Nc2ccc(O)cc2/C1=C\c1ccncc1

>  <classification>
0 (no)

$$$$
>  <molecule>
C=C[C@H]1CN2CCc3c([nH]c4c([C@@H]5CCCN5C)c(O)ccc34)[C@@H]2C[C@@H]1C[C@H]1c2[nH]c3ccccc3c2CCN1C

>  <classification>
0 (no)

$$$$
>  <molecule>
CS(=O)(=O)c1ccc2c(c1)C(=O)c1c-2n(CCCBr)c(=O)c2cc([N+](=O)[O-])ccc12

>  <classification>
0 (no)

$$$$
>  <molecule>
COc1cc(N2CCN(C(C)C)CC2)ccc1Nc1nc(Nc2ccc(F)cc2C(=O)NCC(O)CO)c2cc[nH]c2n1 (centres undefined)

>  <classification>
0 (no)

$$$$
>  <molecule>
Cc1cc(I)cc(CNCCN2CCOCC2)c1O

>  <classification>
0 (no)

$$$$
>  <molecule>
c1ccc(COCC[P+](c2ccccc2)(c2ccccc2)c2ccccc2)cc1

>  <classification>
0 (no)

$$$$
>  <molecule>
O=C(/C=C/c1ccco1)Nc1ncc(Cc2cccc(C(F)(F)F)c2)s1

>  <classification>
1 (yes)

$$$$

Request: How was C[C@]12CCCN1CC1=NNC(=O)c3cc(F)cc4[nH]c2c1c34 classified in this test?
Result: 0 (no)

Request: Okay, and CNCCCn1c2c(c3ccc(Cl)cc3c1=O)C(=O)c1cc(OC)cnc1-2 ?
Result: 0 (no)

Request: Okay, and [N-]=[N+]=NCCCn1c2c(c3ccc([N+](=O)[O-])cc3c1=O)C(=O)c1cc(I)ccc1-2 ?
Result: 0 (no)

Request: Okay, and CON=C1C[C@]2(C[C@@H]3C[C@@H](C/C=C(\C)C[C@@H](C)/C=C/C=C4\CO[C@@H]5[C@H](O)C(C)=C[C@@H](C(=O)O3)[C@]45O)O2)O[C@H](/C(C)=C/C(C)C)[C@H]1C ?
Result: 0 (no)

Request: Okay, and CN1CCN(Cc2ccc(NC(=O)c3cncc(C#Cc4c(N)ncc5c(F)cccc45)c3)cc2C(F)(F)F)CC1 ?
Result: 0 (no)

Request: Okay, and Cc1ccc(/C=C(/C#N)n2nnc3ncccc32)cc1 ?
Result: 1 (yes)

Request: Okay, and CN1C(=O)/C(=C2\S/C(=N\c3nnc(-c4ccccc4)o3)NC2=O)c2ccccc21 ?
Result: 0 (no)

Request: Okay, and Nc1c(C(=O)c2ccc(C#CCN3CCOCC3)cc2)cnn1-c1ccc(F)cc1 ?
Result: 0 (no)

Request: Okay, and Cc1cc(O[C@@H]2O[C@@H](C)[C@H](O)[C@@H](O)[C@H]2O)c2c3c(c(O[C@@H]4O[C@@H](C)[C@H](O)[C@@H](O)[C@H]4O)cc2c1)C(=O)c1c(O)cccc1C3=O ?
Result: 0 (no)

Request: Okay, and Cc1cncc(-c2nc(NCCc3c[nH]c4ccccc34)c3ncn(C(C)C)c3n2)c1 ?
Result: 0 (no)

Request: Okay, and O=C(NCCCl)NCCN1c2nc3ccccc3cc2Sc2cc3ccccc3nc21 ?
Result: 0 (no)

All figures here come from PubChem BioAssay (NCI).
